Could you please report measured pIC50 for the items listed next?
assayProcedure: Inhibitory concentration against Nicotinic acetylcholine receptor alpha3-beta4 expressed in xenopus oocytes
Format: cell-based
testParameters: oocyte
Convention used: pIC50 is expressed as -log10 of the molar concentration.

input: For the molecule CO[C@@H]1CC=C2CCN3CCC4=C(CC(=O)OC4)[C@@]23C1 , what pIC50 is on record?
output: 4.85

input: For the molecule COc1cc2c3cc1Oc1cccc(c1O)C[C@@H]1c4c(cc(OC)c(O)c4Oc4ccc(cc4)CC3N(C)CC2)CC[N+]1(C)C (some centres not stated) , what pIC50 is on record?
output: 5.66

###

system: Neuronal acetylcholine receptor; alpha3/beta4 (Homo sapiens, UniProt P30926+P32297)
Sequence (P30926 whole entry): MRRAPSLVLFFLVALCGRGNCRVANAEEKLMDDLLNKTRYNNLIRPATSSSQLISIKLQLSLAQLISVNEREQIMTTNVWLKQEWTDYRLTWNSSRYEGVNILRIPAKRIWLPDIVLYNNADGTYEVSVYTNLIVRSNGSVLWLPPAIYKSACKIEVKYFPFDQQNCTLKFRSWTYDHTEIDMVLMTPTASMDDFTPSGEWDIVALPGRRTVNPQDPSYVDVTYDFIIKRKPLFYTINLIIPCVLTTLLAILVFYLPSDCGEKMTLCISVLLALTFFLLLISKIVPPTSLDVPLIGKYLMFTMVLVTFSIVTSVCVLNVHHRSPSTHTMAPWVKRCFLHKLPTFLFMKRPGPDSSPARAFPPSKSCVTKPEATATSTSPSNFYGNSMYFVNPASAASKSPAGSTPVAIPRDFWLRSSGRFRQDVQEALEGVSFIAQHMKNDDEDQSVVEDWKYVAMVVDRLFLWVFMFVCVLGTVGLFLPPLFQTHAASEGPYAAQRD
Sequence (P32297 whole entry): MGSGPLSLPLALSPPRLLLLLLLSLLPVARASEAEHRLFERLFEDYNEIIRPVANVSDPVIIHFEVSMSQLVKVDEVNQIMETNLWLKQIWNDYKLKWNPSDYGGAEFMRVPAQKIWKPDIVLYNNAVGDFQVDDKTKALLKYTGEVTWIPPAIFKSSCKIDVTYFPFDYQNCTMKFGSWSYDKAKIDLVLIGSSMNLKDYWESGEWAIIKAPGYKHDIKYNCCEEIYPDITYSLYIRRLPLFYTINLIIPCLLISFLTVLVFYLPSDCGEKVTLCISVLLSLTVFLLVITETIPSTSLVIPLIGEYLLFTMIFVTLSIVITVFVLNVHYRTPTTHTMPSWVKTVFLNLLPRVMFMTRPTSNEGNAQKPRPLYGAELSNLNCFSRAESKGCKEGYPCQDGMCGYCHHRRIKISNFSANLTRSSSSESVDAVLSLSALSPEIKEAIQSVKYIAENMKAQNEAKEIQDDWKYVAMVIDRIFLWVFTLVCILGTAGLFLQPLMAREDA
assayProcedure: Inhibitory concentration against Nicotinic acetylcholine receptor alpha3-beta4
Type: protein-complex assay
Peptide text beside a SMILES is read from it.
endpoint: pIC50
Convention used: pIC50 is expressed as -log10 of the molar concentration.

input: For the compound CN1CCC[C@H]1COc1cnc(Cl)c(-c2ccc(Cl)cc2)c1 , what pIC50 is on record?
output: 5.04

input: For the compound CSCC[C@H](NC(=O)[C@H](CC(N)=O)NC(=O)[C@H](CS)NC(=O)[C@@H]1CCCN1C(=O)[C@H](CCCNC(=N)N)NC(=O)[C@H](CC(=O)O)NC(=O)[C@H](CO)NC(=O)[C@H](CS)NC(=O)[C@H](CS)NC(=O)CN)C(=O)N[C@@H](CC(N)=O)C(=O)N[C@@H](CC(N)=O)C(=O)N1CCC[C@H]1C(=O)N[C@@H](CC(=O)O)C(=O)N[C@@H](Cc1ccc(O)cc1)C(=O)N[C@@H](CS)C(N)=O (H-GCCSDRPCNMNNPDYC-NH2) , what pIC50 is on record?
output: 7.52

input: For the compound C[C@H](NC(=O)[C@H](C)NC(=O)[C@H](CS)NC(=O)[C@H](C)NC(=O)[C@@H]1CCCN1C(=O)[C@H](Cc1c[nH]cn1)NC(=O)[C@H](CO)NC(=O)[C@H](CS)NC(=O)[C@H](CS)NC(=O)CNC(=O)CN)C(=O)N[C@@H](CC(N)=O)C(=O)N[C@@H](CC(N)=O)C(=O)N[C@@H](CCC(N)=O)C(=O)N[C@@H](CC(=O)O)C(=O)N[C@@H](Cc1ccc(O)cc1)C(=O)N[C@@H](CS)C(N)=O , what pIC50 is on record?
output: 9.52

###

system: Neuronal acetylcholine receptor subunit alpha-7 (Rattus norvegicus)
Sequence (Q05941 whole entry): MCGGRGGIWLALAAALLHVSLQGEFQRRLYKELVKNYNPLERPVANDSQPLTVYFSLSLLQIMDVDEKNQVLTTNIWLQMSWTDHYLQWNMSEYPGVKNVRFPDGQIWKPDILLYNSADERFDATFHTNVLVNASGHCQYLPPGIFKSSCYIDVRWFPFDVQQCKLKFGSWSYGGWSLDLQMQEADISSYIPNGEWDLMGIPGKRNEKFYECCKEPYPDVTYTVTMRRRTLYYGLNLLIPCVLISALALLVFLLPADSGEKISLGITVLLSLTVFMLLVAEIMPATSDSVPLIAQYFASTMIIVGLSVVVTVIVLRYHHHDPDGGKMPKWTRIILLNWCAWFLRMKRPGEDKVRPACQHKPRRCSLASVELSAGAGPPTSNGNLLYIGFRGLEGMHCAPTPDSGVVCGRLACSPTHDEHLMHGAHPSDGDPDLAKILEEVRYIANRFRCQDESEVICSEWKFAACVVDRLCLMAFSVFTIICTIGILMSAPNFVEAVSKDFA
assayProcedure: Effective concentration against Nicotinic acetylcholine receptor alpha 7 in rat mid brain slices
endpoint: EC50

input: For the molecule CN[C@@H](C)C/C=C/c1cncc(OC(C)C)c1 , what EC50 is on record?
output: > 100 µM

###

system: Neuronal acetylcholine receptor; alpha4/beta2 (Homo sapiens, UniProt P17787+P43681)
assayProcedure: Inhibitory concentration against Nicotinic acetylcholine receptor alpha4-beta2
Type: protein-complex assay
endpoint: Concentration (µM)
Give just the number in µM; leave the unit off.

input: Form: Entry = CO[C@@H]1CC=C2CCN3CCC4=C(CC(=O)OC4)[C@@]23C1 | System = Neuronal acetylcholine receptor; alpha4/beta2 (Homo sapiens, UniProt P17787+P43681) | Concentration = ____
output: 2.7

input: Form: Entry = CN1CCC[C@H]1COc1cnc(Cl)c(-c2ccc(Cl)cc2)c1 | System = Neuronal acetylcholine receptor; alpha4/beta2 (Homo sapiens, UniProt P17787+P43681) | Concentration = ____
output: 0.96

input: Form: Entry = CNC1(C)C2CCC(C2)C1(C)C (stereo not given) | System = Neuronal acetylcholine receptor; alpha4/beta2 (Homo sapiens, UniProt P17787+P43681) | Concentration = ____
output: 0.78

input: Form: Entry = COc1cc2c3cc1Oc1cccc(c1O)C[C@@H]1c4c(cc(OC)c(O)c4Oc4ccc(cc4)CC3N(C)CC2)CC[N+]1(C)C (stereo not given in full) | System = Neuronal acetylcholine receptor; alpha4/beta2 (Homo sapiens, UniProt P17787+P43681) | Concentration = ____
output: 7.6

input: Form: Entry = CC[N+](CC)(CC)CCOc1ccc(/C=C/c2ccccc2)cc1 | System = Neuronal acetylcholine receptor; alpha4/beta2 (Homo sapiens, UniProt P17787+P43681) | Concentration = ____
output: 3.2

The measurements presented in this section are drawn from ChEMBL document CHEMBL1145159.
